# testTarget: SARS-CoV-2 PL^pro (Severe acute respiratory syndrome coronavirus 2)
# protocolDetails: biochemical
IC50: recorded values

# compound, testTarget, IC50
data = [
    ("CN1CCCN=C1/C=C/c1cccs1 [Pyrantel pamoate, reference compound]", "SARS-CoV-2 PL^pro (Severe acute respiratory syndrome coronavirus 2)", "> 5 µM"),
]

Moving on to another compound below.
# input Given the entry O=C1OC2(c3ccccc31)c1cc(I)c(O)c(I)c1Oc1c2cc(I)c(O)c1I , report its measured IC50.
# output > 5 µM

---

# testTarget: SARS-CoV-2 M^pro (Severe acute respiratory syndrome coronavirus 2, UniProt P0DTD1)
# protocolDetails: biochemical
# reportedConditions: read-out: M^pro % inhibition at 10 µM; ReFRAME hits, 10 µM
Listed below: inhibition at 10 µM values for each entry.
Write down the numeric answer in % and omit the unit.

# molecule, unitString, inhibition at 10 µM
records = [
    ("O=C1OC2(c3ccccc31)c1cc(I)c(O)c(I)c1Oc1c2cc(I)c(O)c1I [erythrosine]", "%", 58),
    ("O=C(NC1CC1)C(=O)C(Cc1ccccc1)NC(=O)C1CCC(=O)N1Cc1ccccc1 (stereo not shown) [Compound 2, ABT-957, reference compound]", "%", 73),
    ("O=c1cc(-c2ccc(O)c(-c3c(O)cc(O)c4c(=O)cc(-c5ccc(O)cc5)oc34)c2)oc2cc(O)cc(O)c12 [amentoflavone]", "%", 34),
    ("CC(C)(C)NC(=O)N[C@H](C(=O)N1C[C@H]2[C@@H]([C@H]1C(=O)NC(CC1CCC1)C(=O)C(N)=O)C2(C)C)C(C)(C)C (stereo partly shown) [Boceprevir, reference compound]", "%", 62),
    ("Cc1cccnc1NS(=O)(=O)c1ccc(C#Cc2ccc(O)c(C(=O)O)c2)cc1 [susalimod]", "%", 31),
    ("O=C(N/N=C/c1ccc([N+](=O)[O-])o1)c1cc([N+](=O)[O-])cc([N+](=O)[O-])c1O [nifursol]", "%", 43),
]

Now look at this entry.
# input What value of inhibition at 10 µM on SARS-CoV-2 M^pro (Severe acute respiratory syndrome coronavirus 2, UniProt P0DTD1) does CCOC(=O)C[C@H](NC(=O)[C@H](C)NC(=O)[C@@H](NC(=O)OCc1ccccc1)C(C)C)C(=O)COC(=O)c1c(Cl)cccc1Cl [Compound 4, reference compound] have?
# output 95

The measurements presented in this section are drawn from paper PMC8225628.
